assay_comment: Plasma concentrations after i.v. bolus of SD209 in pigs (in vivo conversion of prodrug)
Design: species or system Yorkshire domestic swine
experimental_setup: pig, plasma, iv, 0.5 mg/kg, pig 1, Time 0.00 hr, i.v. bolus 0.5 mg/kg of SD209; read-out: plasma conc.
readout_kind: concentration at 0 h

INSERT INTO measurements (compound, measured_value) VALUES
  ('Cc1cc(C)c(S(=O)(=O)NC(CNC(=O)c2ccc3c(cnn3CCCNc3ncc[nH]3)c2)C(=O)OCC[N+](C)(C)C)c(C)c1 (stereo not shown)', '< 2 ng/mL');

----------
assay_comment: Plasma concentrations after i.v. bolus of SD209 in pigs (in vivo conversion of prodrug)
Design: species or system Yorkshire domestic swine
experimental_setup: pig, plasma, iv, 0.5 mg/kg, pig 2, Time 0.25 hr, i.v. bolus 0.5 mg/kg of SD209; read-out: plasma conc.
readout_kind: concentration at 0.25 h (ng/mL)

INSERT INTO assay_data (molecule, readout_kind, measured_value) VALUES
  ('Cc1cc(C)c(S(=O)(=O)NC(CNC(=O)c2ccc3c(cnn3CCCNc3ncc[nH]3)c2)C(=O)OCC[N+](C)(C)C)c(C)c1 (stereo not shown) [SD209]', 'concentration at 0.25 h', 3);
